These measurements were taken from PubChem BioAssay (NCI).

Please provide measured growth for the entries that follow.
test system: SNB-19 CNS; test: NCI-60 one-dose screen, 48 h (100 = growth as untreated, 0 = no growth, -100 = all killed); settings: 10 µM
This is part of a sample that, as a whole, favours compounds with a hit. Of some 83,000 tested, about 20% had one in any assay.
Give just the numeric value; % need not be written.

Prompt: Given the entry COc1ccc(-c2nn(-c3cccc(NC(=O)c4cccc(C(F)(F)F)c4)c3)cc2-c2ccncc2)cc1Cl , what growth was observed with SNB-19 CNS?
Completion: 79.6

Prompt: Query Cc1cccc(Cl)c1NC(=O)c1ccc2nc(NC(=O)NC3CCN(C)CC3)sc2c1 next
Completion: 102

Prompt: Query C#Cc1ccc(-n2c(/C=C/c3ccc(O)c(OC)c3)nc3ncccc3c2=O)cc1 next
Completion: 96.2

Prompt: Query COc1ccc(-c2nc3sc(-c4ccccc4)c(-c4ccccc4)n3c2/C=C/C(=O)c2ccccn2)cc1 next
Completion: 97.1

Prompt: Query COc1ccc(-c2nc3sccn3c2-c2nc3c([nH]2)C(=O)c2ccccc2C3=O)cc1 next
Completion: 96.4

Prompt: Query COc1ccc2c(c1)C(=O)c1c-2c(OCCN(C)C)nc2cc(OC)c(OC)cc12 next
Completion: 57.1

Prompt: Query O=C1/C(=C\c2ccc(Br)cc2)CN(C(=O)c2ccccc2F)C/C1=C\c1ccc(Br)cc1 next
Completion: 54.3

Prompt: Query Nc1c(C(=O)Nc2ccccc2)sc2nc3c(cc12)CCCC3 next
Completion: 64

Prompt: Query O=C(CSSCC(=O)c1ccc(Cl)cc1)c1ccc(Cl)cc1 next
Completion: 52.8

====

Please provide measured growth for the entries that follow.
system: MDA-MB-435 melanoma; experiment: NCI-60 one-dose screen, 48 h (100 = growth as untreated, 0 = no growth, -100 = all killed); conditions: 10 µM
This is part of a sample that, as a whole, favours compounds with a hit. Of some 83,000 tested, about 20% had one in any assay. Calls of active or inactive are those of the source. How the source made its calls: active means growth percent below 10; inactive means the rest.

Prompt: I would be grateful if you could share the reported growth for CNc1ncc(-c2ccc(C(F)(F)F)cc2)c(NC2CCCCCC2)n1 .
Completion: 89.8% (inactive)

Prompt: Query CCN(CC)CCCOCCCNc1cc(OC)cc2cccnc12 next
Completion: 112% (inactive)

Prompt: Query CN(C)c1ccc(N=C2C=CC(=O)c3ccccc32)cc1 next
Completion: -87% (active)

Prompt: Query Clc1ccc(Nc2ccnc(NCCNc3ccnc4cc(Cl)ccc34)n2)cc1 next
Completion: -90% (active)

Prompt: Query CCc1ccc2c(c1)N(CCO)C1=C(C(=O)OC1)C2c1cc(OC)c(OC)c(OC)c1 (stereo not drawn) next
Completion: -69.9% (active)

Prompt: Query CCCCOc1ccc(NC(=O)Nc2nnc(C)s2)cc1 next
Completion: 101% (inactive)

Prompt: Query O=C(O)CC(Cl)C(Cl)CC(=O)O (stereo not drawn) next
Completion: 93.8% (inactive)

Prompt: Query COc1cc(CNCCCCCCN2C(=O)c3cccc4cccc(c34)C2=O)ccc1O next
Completion: 58.1% (inactive)

Prompt: Query Cc1cc2c(C)c3cc(C)c(N)cc3nc2cc1N next
Completion: 12% (inactive)

Prompt: Query COc1ccc(-c2nsc3c2NC(=O)CC3c2ccc(F)cc2)cc1 (stereo not drawn) next
Completion: -56.1% (active)

Prompt: Query CCN(CC)CCSCCCNc1c2ccc(Cl)cc2nc2ccc(OC)cc12 next
Completion: -94.7% (active)

Prompt: Query CS(=O)(=O)Nc1ccc(Nc2c3ccccc3nc3cc(N)ccc23)cc1 next
Completion: 53.6% (inactive)

Prompt: Query Cc1cccc(Cl)c1NC(=O)c1ccc2nc(NC(=O)NC3CCN(C)CC3)sc2c1 next
Completion: 82.9% (inactive)

Prompt: Query Cc1ccc(NC(=O)Nc2cccnc2)cc1NC(=O)Nc1cccnc1 next
Completion: 73.9% (inactive)

Prompt: Query O=C(CC(NC(=O)OCc1ccccc1)C(=O)OCc1ccccc1)OCc1ccccc1 (stereo not drawn) next
Completion: 102% (inactive)

Prompt: Query O=C(C[n+]1ccccc1)c1ccc2ccccc2c1 next
Completion: 102% (inactive)

Prompt: Query CSc1nn(-c2ccccc2)c2ncnc(Oc3ccccc3)c12 next
Completion: 102% (inactive)

Prompt: Query NC1=NC(=O)C(c2ccccc2)(c2ccccc2)S1 next
Completion: 121% (inactive)

Prompt: Query O=C1C(=O)c2ccccc2C(O)=C1CCCc1ccc(C2CCCCCC2)cc1 next
Completion: 33.9% (inactive)

Prompt: Query COc1ccc([N+](=O)[O-])c(C(=O)O)c1 next
Completion: 97.9% (inactive)

Prompt: Query COC(=O)C(=C\c1ccc2c(c1)OCO2)/C(=C/c1ccc2c(c1)OCO2)C(=O)OC next
Completion: 104% (inactive)

Prompt: Query S=C1SCC(c2ccccc2)S1 (stereo not drawn) next
Completion: 102% (inactive)

Prompt: Query COc1cc2c(cc1OCCCCCCN1CCN(CC(=O)Nc3ccc(Cl)cc3C(=O)c3ccccc3Cl)CC1)N=CC1CCCN1C2=O (stereo not drawn) next
Completion: -81.2% (active)
